Sourced from patent US20160115500A1

Biological target: T1, GAL4 activation domain fusion (ACT) to HAB1 (UniProt Q9CAJ0 23-511, limits assumed)
T1 construct: pACT-HAB1 fusion in yeast reporter strains; also called pACT-HAB1
T1 sequence (looked up): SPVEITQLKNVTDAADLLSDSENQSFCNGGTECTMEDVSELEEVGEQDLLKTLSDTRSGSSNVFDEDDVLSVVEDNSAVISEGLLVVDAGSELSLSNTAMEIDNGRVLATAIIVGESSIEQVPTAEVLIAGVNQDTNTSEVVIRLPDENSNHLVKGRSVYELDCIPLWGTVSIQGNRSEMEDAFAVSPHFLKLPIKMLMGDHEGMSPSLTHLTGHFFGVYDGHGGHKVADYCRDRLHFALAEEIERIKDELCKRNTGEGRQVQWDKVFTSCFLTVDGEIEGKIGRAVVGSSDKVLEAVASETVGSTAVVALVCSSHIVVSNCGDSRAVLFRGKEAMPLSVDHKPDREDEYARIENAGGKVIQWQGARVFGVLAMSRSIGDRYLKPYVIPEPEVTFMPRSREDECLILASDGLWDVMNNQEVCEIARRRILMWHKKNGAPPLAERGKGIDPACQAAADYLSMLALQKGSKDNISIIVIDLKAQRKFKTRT
Test: yeast two-hybrid, X-gal; lowest benzothiadiazole concentration giving signal
Quantity measured: Threshold (µM)
Answer in µM, number only, no unit symbol.

Entry under review: PYR1^K59R,F159C (receptor, not shown: small tags and cut ends, pBD-PYR1 fusion in yeast) MPSELTPEERSELKNSIAEFHTYQLDPGSCSSLHAQRIHAPPELVWSIVRRFDKPQTYRHFIKSCSVEQNFEMRVGCTRDVIVISGLPANTSTERLDILDDERRVTGFSIIGGEHRLTNYKSVTTVHRFEKENRIWTVVLESYVVDMPEGNSEDDTRMCADTVVKLNLQKLATVAEAMARNSGDGSGSQVT . Reported Threshold? 100

Okay, and PYR1^K59R,T162K (receptor, not shown: small tags and cut ends, pBD-PYR1 fusion in yeast) MPSELTPEERSELKNSIAEFHTYQLDPGSCSSLHAQRIHAPPELVWSIVRRFDKPQTYRHFIKSCSVEQNFEMRVGCTRDVIVISGLPANTSTERLDILDDERRVTGFSIIGGEHRLTNYKSVTTVHRFEKENRIWTVVLESYVVDMPEGNSEDDTRMFADKVVKLNLQKLATVAEAMARNSGDGSGSQVT ? 100

And what about the binder PYR1^K59R,A89C,V164K (receptor, not shown: small tags and cut ends, pBD-PYR1 fusion in yeast) MPSELTPEERSELKNSIAEFHTYQLDPGSCSSLHAQRIHAPPELVWSIVRRFDKPQTYRHFIKSCSVEQNFEMRVGCTRDVIVISGLPCNTSTERLDILDDERRVTGFSIIGGEHRLTNYKSVTTVHRFEKENRIWTVVLESYVVDMPEGNSEDDTRMFADTVKKLNLQKLATVAEAMARNSGDGSGSQVT ? 0.2

PYR1^K59R,L117C (receptor, not shown: small tags and cut ends, pBD-PYR1 fusion in yeast) MPSELTPEERSELKNSIAEFHTYQLDPGSCSSLHAQRIHAPPELVWSIVRRFDKPQTYRHFIKSCSVEQNFEMRVGCTRDVIVISGLPANTSTERLDILDDERRVTGFSIIGGEHRCTNYKSVTTVHRFEKENRIWTVVLESYVVDMPEGNSEDDTRMFADTVVKLNLQKLATVAEAMARNSGDGSGSQVT , same question. 100

Please do the same for PYR1^K59R,A89C,L117C (receptor, pBD-PYR1 fusion in yeast) MPSELTPEERSELKNSIAEFHTYQLDPGSCSSLHAQRIHAPPELVWSIVRRFDKPQTYRHFIKSCSVEQNFEMRVGCTRDVIVISGLPCNTSTERLDILDDERRVTGFSIIGGEHRCTNYKSVTTVHRFEKENRIWTVVLESYVVDMPEGNSEDDTRMFADTVVKLNLQKLATVAEAMARNSGDGSGSQVT as well. 25

Same lookup for PYR1^K59R,F159A (receptor, not shown: small tags and cut ends, pBD-PYR1 fusion in yeast) MPSELTPEERSELKNSIAEFHTYQLDPGSCSSLHAQRIHAPPELVWSIVRRFDKPQTYRHFIKSCSVEQNFEMRVGCTRDVIVISGLPANTSTERLDILDDERRVTGFSIIGGEHRLTNYKSVTTVHRFEKENRIWTVVLESYVVDMPEGNSEDDTRMAADTVVKLNLQKLATVAEAMARNSGDGSGSQVT , please. 100
